- Test system: Cynodon dactylon
- measurement_description: Growth-regulating action, postemergence, greenhouse (Example 35, Table 1)
- Format: in vivo
- condition_notes: 1.0 kg/ha
Reported Growth height values follow for various compounds
recorded_metric: Growth height (cm)

>>> observed_measurement("Clc1ccc(N2C3C4CC(C5N=NC45)C32)cc1Cl (centres unmarked)")
6
>>> observed_measurement("c1csc(N2C3C4CC(C5N=NC45)C32)n1 (centres unmarked)")
7
>>> observed_measurement("CN(C)NC(=O)CCC(=O)O [drawing 437, reference compound]")
12
>>> observed_measurement("c1cc2sncc2cc1N1C2C3CC(C4N=NC34)C21 (centres unmarked)")
4
>>> observed_measurement("FC(F)(F)c1cccc(N2C3C4CC(C5N=NC45)C32)c1 (centres unmarked) [drawing 434]")
4
